Hey, just so you know, these numbers are from ChEMBL document CHEMBL2029205.

test_system: UniProtKB O42713
Sequence (O42713 whole entry): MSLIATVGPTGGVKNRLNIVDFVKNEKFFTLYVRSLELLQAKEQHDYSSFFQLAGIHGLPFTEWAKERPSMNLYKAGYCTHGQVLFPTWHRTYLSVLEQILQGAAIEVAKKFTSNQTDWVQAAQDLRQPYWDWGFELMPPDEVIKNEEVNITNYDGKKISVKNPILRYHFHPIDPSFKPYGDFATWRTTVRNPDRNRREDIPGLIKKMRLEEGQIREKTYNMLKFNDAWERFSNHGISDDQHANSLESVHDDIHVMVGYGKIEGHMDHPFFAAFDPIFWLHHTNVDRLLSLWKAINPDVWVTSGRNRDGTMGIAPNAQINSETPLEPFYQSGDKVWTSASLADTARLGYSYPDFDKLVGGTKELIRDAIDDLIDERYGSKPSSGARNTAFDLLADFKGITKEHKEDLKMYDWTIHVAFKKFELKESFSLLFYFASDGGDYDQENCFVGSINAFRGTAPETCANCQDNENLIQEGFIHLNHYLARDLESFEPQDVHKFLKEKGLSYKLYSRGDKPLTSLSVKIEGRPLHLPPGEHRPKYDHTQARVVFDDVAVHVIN
protocol_summary: Inhibition of mushroom tyrosinase using L-DOPA as substrate after 20 mins by spectrophotometry
measurement_name: pIC50
Would you please state pIC50, meaning minus log10 of the concentration in mol/L, as a bare number?

Observe how each entry below is paired with its result.
> print(dat)
                            line.notation   val
1      O=C(OCc1cc(=O)c(O)co1)c1ccc(O)cc1O  5.44
2      COc1ccc(C(=O)OCc2cc(=O)c(O)co2)cc1  5.69
3       O=C(OCc1cc(=O)c(O)co1)c1ccc(O)cc1  5.74
4  COc1ccc(C(=O)OCc2cc(=O)c(O)co2)c(OC)c1  5.32

Identify measured pIC50 corresponding to `COc1ccc(C(=O)OCc2cc(=O)c(O)co2)c(O)c1`
4.70

###

test_system: Tyrosinase (Agaricus bisporus)
measurement_name: IC50 (µM)
Write the value in µM as a bare number.

Observe how each entry below is paired with its result.
> print(dat)
                                molecule  measurement.name   val
1     COc1ccc(C(=O)OCc2cc(=O)c(O)co2)cc1              IC50  2.03
2  COc1ccc(C(=O)OCc2cc(=O)c(O)co2)c(O)c1              IC50  10.6
3      O=C(OCc1cc(=O)c(O)co1)c1ccc(O)cc1              IC50   2.8
4     O=C(OCc1cc(=O)c(O)co1)c1ccc(O)cc1O              IC50  3.51
5            Oc1ccc(O)cc1 [HYDROQUINONE]              IC50    10

Now for the molecule whose IC50 we want.
Print Tyrosinase (Agaricus bisporus) IC50 for `COc1ccc(C(=O)OCc2cc(=O)c(O)co2)c(OC)c1` .
3.23

###

protocol_summary: in vitro
condition_summary: mouse, Melan-a cells
Description: Ratio of IC50 for cytotoxicity against mouse Melan-a cells to IC50 for depigmentation in mouse Melan-a cells
Label t when selectivity ratio is strictly below 6; otherwise label f.

Observe how each entry below is paired with its result.
> print(dat)
                                   molecule  class.label
1  COc1ccc(C(=O)OCc2cc(=O)c(O)co2)cc1C12CC3CC(CC(C3)C1)C2            t
2               Oc1ccc(O)cc1 [HYDROQUINONE]            t
3  COc1cc(OC)c(C23CC4CC(CC(C4)C2)C3)cc1C(=O)OCc1cc(=O)c(O)co1            t
4  O=C(OCc1cc(=O)c(O)co1)c1cc(C23CC4CC(CC(C4)C2)C3)c(O)cc1O            t
5  O=C(OCc1cc(=O)c(O)co1)c1ccc(O)c(C23CC4CC(CC(C4)C2)C3)c1            f

Is it true that selectivity ratio reported for `COc1cc(O)c(C(=O)OCc2cc(=O)c(O)co2)cc1C12CC3CC(CC(C3)C1)C2` is less than 6?
t

Is it true that selectivity ratio reported for `COc1ccc(C(=O)OCc2cc(=O)c(OC)co2)cc1C12CC3CC(CC(C3)C1)C2` is less than 6?
f
